Reference source for all entries: patent US10865191B2

target desc: TNFα (Homo sapiens, UniProt P01375)
Sequence (P01375 77-233 limits assumed): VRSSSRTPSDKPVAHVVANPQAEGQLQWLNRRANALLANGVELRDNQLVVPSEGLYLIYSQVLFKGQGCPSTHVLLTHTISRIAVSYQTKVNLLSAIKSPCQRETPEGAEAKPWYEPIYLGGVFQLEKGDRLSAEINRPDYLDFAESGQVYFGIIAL
protocol: TNF induced HEK-Blue assay (NF-kB-driven secreted alkaline phosphatase reporter)
Format: cell-based
assay setup: TNFα 0.5 ng/mL, HEK-Blue-CD40L cells, 18 h; read-out: TNF induced HEK-Blue assay IC50 value
pIC50: −log10 of the molar value.
attribute measured: pIC50

{"compound": "C[C@@H](Nc1c(Cl)cnc2cc(F)c(-c3ccc(N4CCN(CC(=O)O)CC4)cc3)cc12)c1ccccc1F", "target desc": "TNFα (Homo sapiens, UniProt P01375)", "reported value": "> 6.00"}
{"compound": "Cc1ccc(C)c(Nc2c(Cl)c(COc3cccnc3)nc3ccc(-c4ccc(C#N)nc4)cc23)c1", "target desc": "TNFα (Homo sapiens, UniProt P01375)", "reported value": "5.00 to 6.00"}
{"compound": "Cc1nc2ccc(-c3cnc(C(C)(C)O)nc3)cc2c(NC(C)c2cc(F)ccc2F)c1Cl (racemic)", "target desc": "TNFα (Homo sapiens, UniProt P01375)", "reported value": "> 6.00"}
{"compound": "C[C@@H](Nc1c(Cl)cnc2cccnc12)c1cc(-c2cncnc2)ccc1F", "target desc": "TNFα (Homo sapiens, UniProt P01375)", "reported value": "> 6.00"}
{"compound": "Cc1nc2cc(F)c(-c3ccc(=O)[nH]c3)cc2c(N[C@H](C)c2cc(Br)ccc2F)c1Cl", "target desc": "TNFα (Homo sapiens, UniProt P01375)", "reported value": "> 6.00"}
{"compound": "CC(Nc1c(F)cnc2ccc(-c3cnc(C(C)(C)O)nc3)cc12)c1ccccc1F (racemic)", "target desc": "TNFα (Homo sapiens, UniProt P01375)", "reported value": "5.00 to 6.00"}
{"compound": "Cc1ccc(C)c(Nc2c(Cl)c(CO)nc3ccc(-c4cnc(C(C)(C)O)nc4)cc23)c1", "target desc": "TNFα (Homo sapiens, UniProt P01375)", "reported value": "> 6.00"}
{"compound": "CC1Cc2ccccc2N1Nc1c(Cl)cnc2ccc(-c3cnc(C(C)(C)O)nc3)cc12 (racemic)", "target desc": "TNFα (Homo sapiens, UniProt P01375)", "reported value": "> 6.00"}
{"compound": "C[C@@H](Nc1c(Cl)cnc2ccc(-c3cnc(C(C)(C)O)nc3)cc12)c1cccc(N2CCCC2=O)c1", "target desc": "TNFα (Homo sapiens, UniProt P01375)", "reported value": "5.00 to 6.00"}
{"compound": "CC(Nc1c(Cl)cnc2ncc(-c3ccc(C(C)(C)O)cc3)cc12)c1ccccc1F (racemic)", "target desc": "TNFα (Homo sapiens, UniProt P01375)", "reported value": "4.60 to 5.00"}
{"compound": "C[C@@H](Nc1c(Cl)cnc2ccccc12)c1cc(-c2cnn(Cc3ccccc3)c2)ccc1F", "target desc": "TNFα (Homo sapiens, UniProt P01375)", "reported value": "4.60 to 5.00"}
{"compound": "Fc1ccc(Br)cc1[C@@H](Nc1c(Cl)cnc2ccccc12)C(F)F", "target desc": "TNFα (Homo sapiens, UniProt P01375)", "reported value": "5.00 to 6.00"}
{"compound": "Cc1nc2ccc(-c3cnc(C(C)(C)O)nc3)cc2c(N[C@H](C)c2cc(-c3cnc(C(C)(C)O)nc3)ccc2F)c1Cl", "target desc": "TNFα (Homo sapiens, UniProt P01375)", "reported value": "> 6.00"}
{"compound": "C[C@@H](Nc1c(Cl)cnc2ccccc12)c1cc(OCCCO)ccc1F", "target desc": "TNFα (Homo sapiens, UniProt P01375)", "reported value": "5.00 to 6.00"}
{"compound": "CC(C)(O)c1ncc(-c2ccc3ncc(Cl)c(NC(c4ccccc4F)C(C)(C)O)c3c2)cn1 (racemic)", "target desc": "TNFα (Homo sapiens, UniProt P01375)", "reported value": "> 6.00"}
{"compound": "CC(Nc1c(Cl)cnc2cc(F)c(-c3cnc(C(O)CN4CCOCC4)cn3)cc12)c1ccccc1F (stereo not drawn) [Example 274]", "target desc": "TNFα (Homo sapiens, UniProt P01375)", "reported value": "5.00 to 6.00"}
{"compound": "C[C@@H](Nc1c(Cl)cnc2ccccc12)c1cc(-c2cn(C)nc2C(F)(F)F)ccc1F", "target desc": "TNFα (Homo sapiens, UniProt P01375)", "reported value": "5.00 to 6.00"}
{"compound": "COc1ncc(-c2ccc(F)c([C@@H](C)Nc3c(Cl)cnc4ccccc34)c2)cc1N", "target desc": "TNFα (Homo sapiens, UniProt P01375)", "reported value": "> 6.00"}
{"compound": "CC(C)(O)c1ncc(-c2ccc3ncc(Cl)c(NC(c4ccccc4F)C(C)(C)F)c3c2)cn1 (racemic)", "target desc": "TNFα (Homo sapiens, UniProt P01375)", "reported value": "4.60 to 5.00"}
{"compound": "C[C@H](Nc1c(Cl)cnc2ccc(-c3cnc(C(C)(C)O)nc3)cc12)C1CCCCC1", "target desc": "TNFα (Homo sapiens, UniProt P01375)", "reported value": "4.60 to 5.00"}
{"compound": "COc1ccc(F)c([C@@H](C)Nc2c(Cl)c(C)nc3ccc(-c4cnc(C(C)(C)O)nc4)cc23)c1", "target desc": "TNFα (Homo sapiens, UniProt P01375)", "reported value": "> 6.00"}
{"compound": "CC(Nc1ncc(-c2ccc3ncc(Cl)c(N[C@H](C)c4ccccc4F)c3c2)cn1)C(N)=O (stereo partly drawn)", "target desc": "TNFα (Homo sapiens, UniProt P01375)", "reported value": "> 6.00"}
{"compound": "Cc1nc2cc(F)c(-c3cnc(C(C)(C)O)nc3)cc2c(N[C@H](C)c2cc(OCCO)ccc2F)c1Cl", "target desc": "TNFα (Homo sapiens, UniProt P01375)", "reported value": "> 6.00"}
{"compound": "CC(Nc1c(Cl)cnc2c(F)cc(-c3cnc(C(C)(C)O)nc3)cc12)c1cc(Br)ccc1F (single isomer, unassigned)", "target desc": "TNFα (Homo sapiens, UniProt P01375)", "reported value": "> 6.00"}
{"compound": "Cc1nc2ccc(-c3cnc(C(C)(C)O)nc3)cc2c(N[C@H](C)c2cc(C(=O)O)ccc2F)c1Cl", "target desc": "TNFα (Homo sapiens, UniProt P01375)", "reported value": "4.60 to 5.00"}
{"compound": "C[C@@H](Nc1c(Cl)cnc2ccc(-c3cnc(C(C)(C)O)nc3)cc12)c1cc(Cl)ncc1F", "target desc": "TNFα (Homo sapiens, UniProt P01375)", "reported value": "5.00 to 6.00"}
{"compound": "COc1cccc([C@@H](C)Nc2c(Cl)cnc3ccccc23)c1", "target desc": "TNFα (Homo sapiens, UniProt P01375)", "reported value": "4.60 to 5.00"}
{"compound": "CC(Nc1c(Cl)cnc2ccc(-c3ccc(C(C)(C)O)cc3)cc12)c1ccncn1 (racemic)", "target desc": "TNFα (Homo sapiens, UniProt P01375)", "reported value": "5.00 to 6.00"}
{"compound": "O=C(O)CC1CN(c2ncc(-c3ccc4ncc(Cl)c(N[C@@H](c5ccccc5F)C(F)F)c4c3)cn2)CCN1 (mixture of isomers)", "target desc": "TNFα (Homo sapiens, UniProt P01375)", "reported value": "> 6.00"}
{"compound": "C[C@@H](Nc1c(Cl)cnc2ccc(-c3cnc(C(C)(C)O)nc3)cc12)c1cc(C#Cc2ccccc2)ccc1F", "target desc": "TNFα (Homo sapiens, UniProt P01375)", "reported value": "5.00 to 6.00"}
